Experiment: Half life in Sprague-Dawley rat at 10 mg/kg, ip measured for 72 hrs by LC-MS/MS analysis
Type: ADME, organism-based
Conditions: in vivo
measured-quantity: half-life (h)
Kindly answer with a numeric value in h, unit omitted.

// half-life lookup, compound = `O=C(Cc1ccccc1)Nc1nnc(NC2CCN(c3nnc(NC(=O)c4nccn4Cc4ccc(C(F)(F)F)cc4)s3)CC2)s1` , result: 8.92

###

Test: MRT (0 to infinity) in Sprague-Dawley rat at 5 mg/kg, iv measured for 72 hrs by LC-MS/MS analysis
Assay type: ADME, organism-based
Conditions: in vivo
measured-quantity: MRT inf
Record the result as a number with its unit.

Item: `O=C(Cc1ccccc1)Nc1nnc(NC2CCN(c3nnc(NC(=O)c4nccn4Cc4ccc(C(F)(F)F)cc4)s3)CC2)s1` | MRT inf: 4.97 h

###

Target: Glutaminase kidney isoform, mitochondrial (Homo sapiens, UniProt O94925)
Sequence (O94925 whole entry, canonical isoform): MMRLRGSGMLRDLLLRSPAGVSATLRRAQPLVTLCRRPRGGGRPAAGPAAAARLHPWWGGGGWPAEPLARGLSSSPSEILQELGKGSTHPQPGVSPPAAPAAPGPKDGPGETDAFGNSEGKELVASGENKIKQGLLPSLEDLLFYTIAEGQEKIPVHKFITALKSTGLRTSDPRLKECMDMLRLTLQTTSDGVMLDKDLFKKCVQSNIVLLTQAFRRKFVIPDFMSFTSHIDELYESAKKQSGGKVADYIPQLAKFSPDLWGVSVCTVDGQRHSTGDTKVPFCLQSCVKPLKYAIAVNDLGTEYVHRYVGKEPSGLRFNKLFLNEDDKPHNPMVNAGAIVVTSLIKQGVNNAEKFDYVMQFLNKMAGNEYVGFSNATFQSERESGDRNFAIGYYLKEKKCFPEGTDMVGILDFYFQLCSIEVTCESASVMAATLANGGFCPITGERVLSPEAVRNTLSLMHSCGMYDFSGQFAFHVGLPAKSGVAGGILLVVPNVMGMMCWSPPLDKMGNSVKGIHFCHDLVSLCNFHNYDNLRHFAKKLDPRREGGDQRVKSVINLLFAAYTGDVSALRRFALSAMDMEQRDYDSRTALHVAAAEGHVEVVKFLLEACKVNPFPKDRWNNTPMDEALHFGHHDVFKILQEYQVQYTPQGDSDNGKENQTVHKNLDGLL
Experiment: Allosteric inhibition of human GLS1 using glutamine as substrate incubated for 60 mins by NADH/NADPH-based absorbance analysis
measured-quantity: pIC50
// pIC50: -log10(molar conc.)

# example entries with known answers
1. COc1ccc(Cn2cc(CCC(=O)Nc3ccc(N4CC[C@@H](Nc5nnc(NC(=O)Cc6ccccn6)s5)C4)nn3)nn2)cc1    7.95
2. Cc1cccc(C)c1Cn1cc(CCC(=O)Nc2nnc(N3CCC(Nc4nnc(NC(=O)Cc5ccccc5)s4)CC3)s2)nn1    7.16
3. Cc1cccc(C)c1Cn1cc(CCC(=O)Nc2ccc(N3CC[C@@H](Nc4nnc(NC(=O)Cc5ccccn5)s4)C3)nn2)nn1    7.38

pIC50 for `O=C(Cc1ccccc1)Nc1nnc(NC2CCN(c3nnc(NC(=O)CCc4cn(Cc5ccc(OC(F)(F)F)cc5)nn4)s3)CC2)s1` is 7.77

Entry under test: `Cc1ccc(Cn2cc(CCC(=O)Nc3nnc(N4CC[C@@H](Nc5nnc(NC(=O)Cc6ccccc6)s5)C4)s3)nn2)cc1` . Its pIC50 was 7.78

###

# key: entry, value: pIC50
Target: Glutaminase kidney isoform, mitochondrial (Homo sapiens)
Experiment: Allosteric inhibition of human GLS1 using glutamine as substrate incubated for 60 mins by NADH/NADPH-based absorbance analysis
Convention used: pIC50 is expressed as -log10 of the molar concentration.

The following compounds have reported results that may help.
1. O=C(Cc1ccccc1)Nc1nnc(N[C@@H]2CCN(c3nnc(NC(=O)CCc4cn(-c5ccc(C(F)(F)F)cc5)nn4)s3)C2)s1    7.75
2. COc1ccc(Cn2cc(CCC(=O)Nc3nnc(N4CCC(Nc5nnc(NC(=O)Cc6ccccc6)s5)CC4)s3)nn2)cc1OC    7.11
3. CO[C@H](C(=O)Nc1nnc(NC2CCN(c3nnc(NC(=O)CCc4cn(Cc5ccc(C(F)(F)F)cc5)nn4)s3)CC2)s1)c1ccccc1    7.63
4. Cc1ccc(Cn2cc(CCC(=O)Nc3nnc(N4CC[C@H](Nc5nnc(NC(=O)Cc6ccccc6)s5)C4)s3)nn2)cc1    6.51
5. COc1ccc(Cn2cc(CCC(=O)Nc3nnc(N4CC[C@H](Nc5nnc(NC(=O)Cc6ccccc6)s5)C4)s3)nn2)cc1    6.26
6. O=C(Cc1ccccc1)Nc1nnc(N[C@H]2CCN(c3nnc(NC(=O)CCc4cn(Cc5ccc(OC(F)(F)F)cc5)nn4)s3)C2)s1    6.42
7. CO[C@@H](C(=O)Nc1nnc(NC2CCN(c3nnc(NC(=O)CCc4cn(CC5=CC=C(C(F)(F)F)CC5)nn4)s3)CC2)s1)c1ccccc1    8.31
8. O=C(Cc1ccccc1)Nc1nnc(N[C@@H]2CCN(c3nnc(NC(=O)CCc4cn(Cc5ccc(OC(F)(F)F)cc5)nn4)s3)C2)s1    7.78

Lab book: pIC50 of `O=C(Cc1ccccc1)Nc1nnc(NC2CCN(c3nnc(NC(=O)c4ccn(Cc5ccc(C(F)(F)F)cc5)n4)s3)CC2)s1` noted as 7.76

Lab note: `COc1ccc(Cn2cc(CCC(=O)Nc3ccc(N4CCC(Nc5nnc(NC(=O)Cc6ccccn6)s5)CC4)nn3)nn2)cc1` gave pIC50 of 7.60

// `O=C(Cc1ccccc1)Nc1nnc(N[C@H]2CCN(c3nnc(NC(=O)CCc4cn(-c5ccc(C(F)(F)F)cc5)nn4)s3)C2)s1` : pIC50 value = 6.67

Lab book: pIC50 of `O=C(Cc1ccccc1)Nc1nnc(N[C@H]2CCN(c3nnc(NC(=O)CCc4cn(Cc5ccc(C(F)(F)F)cc5)nn4)s3)C2)s1` noted as 6.64

The compound listed as `COc1ccc(Cn2cc(CCC(=O)Nc3nnc(N4CCC(Nc5nnc(NC(=O)Cc6ccccc6)s5)CC4)s3)nn2)cc1` shows pIC50 equal to 7.83

Lab note: measured pIC50 of `COc1ccc(Cn2cc(CCC(=O)Nc3ccc(N4CCC(Nc5nnc(NC(=O)Cc6ccccn6)s5)CC4)nn3)nn2)cc1OC` was 7.22

compound `Cc1ccc(Cn2cc(CCC(=O)Nc3ccc(N4CCC(Nc5nnc(NC(=O)Cc6ccccn6)s5)CC4)nn3)nn2)cc1` , pIC50 observed: 7.70

pIC50 recorded for this compound, `COc1ccc(Cn2cc(CCC(=O)Nc3ccc(N4CC[C@@H](Nc5nnc(NC(=O)Cc6ccccn6)s5)C4)nn3)nn2)cc1OC` , is 7.45

Reported pIC50 ( `O=C(CCc1cn(Cc2ccc(C(F)(F)F)cc2)nn1)Nc1ccc(N2CC[C@@H](Nc3nnc(NC(=O)Cc4ccccn4)s3)C2)nn1` ) = 7.99

Note to self: pIC50 recorded for `O=C(CCc1cn(Cc2ccc(C(F)(F)F)cc2)nn1)Nc1ccc(N2CCC(Nc3nnc(NC(=O)Cc4ccccn4)s3)CC2)nn1` was 7.74

Entry `O=C(CCc1cn(Cc2ccc(OC(F)(F)F)cc2)nn1)Nc1ccc(N2CC[C@@H](Nc3nnc(NC(=O)Cc4ccccn4)s3)C2)nn1` ; pIC50 = 7.86

pIC50 in this record for `Cc1ccc(Cn2cc(CCC(=O)Nc3nnc(N4CCC(Nc5nnc(NC(=O)Cc6ccccc6)s5)CC4)s3)nn2)cc1` : 7.91

Reported pIC50 ( `O=C(Cc1ccccc1)Nc1nnc(NC2CCN(c3nnc(NC(=O)c4nccn4Cc4ccc(C(F)(F)F)cc4)s3)CC2)s1` ) = 7.93

Summary for this compound, `COc1ccc(Cn2cc(CCC(=O)Nc3nnc(N4CC[C@@H](Nc5nnc(NC(=O)Cc6ccccc6)s5)C4)s3)nn2)cc1` : pIC50 is 7.24

Field pIC50 (entry `Cc1ccc(Cn2cc(CCC(=O)Nc3ccc(N4CC[C@@H](Nc5nnc(NC(=O)Cc6ccccn6)s5)C4)nn3)nn2)cc1` ) reads 8.05

###

Tested on: HCT-116
Experiment: Antiproliferative activity against human HCT-116 cells overexpressing GLS1 assessed as inhibition of cell proliferation measured after 72 hrs by MTT assay
Assay type: functional, cell-based
Conditions: HCT-116, 72 h
IC50: recorded values
Write it as a number; the unit nM goes unstated.

Here is how some molecules turned out for IC50.
1) O=C(CCc1cn(Cc2ccc(OC(F)(F)F)cc2)nn1)Nc1ccc(N2CCC(Nc3nnc(NC(=O)Cc4ccccn4)s3)CC2)nn1    1240
2) CO[C@@H](C(=O)Nc1nnc(NC2CCN(c3nnc(NC(=O)CCc4cn(CC5=CC=C(C(F)(F)F)CC5)nn4)s3)CC2)s1)c1ccccc1    350

The record that follows has no IC50 shown yet.
Item: `O=C(CCc1cn(Cc2ccc(OC(F)(F)F)cc2)nn1)Nc1ccc(N2CC[C@@H](Nc3nnc(NC(=O)Cc4ccccn4)s3)C2)nn1` | IC50: 700

###

Assay: Half life in Sprague-Dawley rat at 5 mg/kg, iv measured for 72 hrs by LC-MS/MS analysis
Type: ADME, organism-based
Conditions: in vivo
measured-quantity: half-life (h)
Respond with the bare value in h.

Lab book: half-life of `O=C(Cc1ccccc1)Nc1nnc(NC2CCN(c3nnc(NC(=O)c4nccn4Cc4ccc(C(F)(F)F)cc4)s3)CC2)s1` noted as 7.44

###

Assay: AUC (0 to t) in Sprague-Dawley rat at 10 mg/kg, ip measured for 72 hrs by LC-MS/MS analysis
Format: ADME, organism-based
Set-up: time 72 hrs, dose 10 mg/kg, route ip
Details: in vivo
measured-quantity: AUC(0-t) at 72 h (ng·h/mL)
Form entry: value (ng·h/mL) — number only.

Record `O=C(Cc1ccccc1)Nc1nnc(NC2CCN(c3nnc(NC(=O)c4nccn4Cc4ccc(C(F)(F)F)cc4)s3)CC2)s1` , field AUC(0-t) at 72 h: 2900

###

Test system: HCT-116
Assay: Antiproliferative activity against human HCT-116 cells overexpressing GLS1 assessed as inhibition of cell proliferation measured after 72 hrs by MTT assay
Assay type: functional, cell-based
Conditions: HCT-116, 72 h
measured-quantity: IC50 (nM)
Number in nM, nothing else.

Known IC50 results, listed for orientation:
1) CO[C@H](C(=O)Nc1nnc(NC2CCN(c3nnc(NC(=O)CCc4cn(-c5ccc(C(F)(F)F)cc5)nn4)s3)CC2)s1)c1ccccc1    160
2) O=C(CCc1cn(Cc2ccc(C(F)(F)F)cc2)nn1)Nc1ccc(N2CCC(Nc3nnc(NC(=O)Cc4ccccn4)s3)CC2)nn1    530

Switching to the query record.
The value of IC50 measured for the molecule `Cc1ccc(Cn2cc(CCC(=O)Nc3nnc(N4CC[C@@H](Nc5nnc(NC(=O)Cc6ccccc6)s5)C4)s3)nn2)cc1` turned out to be 350
